# Target System: trypsin (Bos taurus)
# Sequence (P00760 24-246): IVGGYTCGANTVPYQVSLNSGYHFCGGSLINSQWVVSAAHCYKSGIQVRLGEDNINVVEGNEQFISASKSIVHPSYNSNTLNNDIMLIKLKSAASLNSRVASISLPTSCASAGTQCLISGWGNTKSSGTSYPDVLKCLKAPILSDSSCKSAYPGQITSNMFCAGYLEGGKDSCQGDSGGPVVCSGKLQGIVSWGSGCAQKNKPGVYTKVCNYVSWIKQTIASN
# Measurement Notes: Trypsin digestion of RAD16-I followed by MALDI-TOF
# Format: in vitro ADME
# Set-up: key: peak presence (+); absence (−)
# Test Parameters: fragments expected after trypsin digestion of RAD16-I; peptide 100 µM in water (50 µM elsewhere in the source), trypsin 1000:1 peptide:enzyme molar ratio, 37 °C, 0-30 min, untreated and thermally treated (90 °C, 10 min) samples, MALDI-TOF, duplicate
Where no end group is shown, it is not given here.
Measurement Kind: Peak Presence in MALDI Spectra

1) ADARADARADA-NH2 [theoretical trypsin digestion fragment of RAD16-I]	+
2) AcN-RADARADARADAR [theoretical trypsin digestion fragment of RAD16-I]	+
3) AcN-RADARADARADARADA-CONH2 [RAD16-I, self-assembling amphiphilic peptide scaffold, commercially available as PuraMatrix (1% in water)]	+
4) ADARADARADAR [theoretical trypsin digestion fragment of RAD16-I]	+
5) ADARADA-NH2 [theoretical trypsin digestion fragment of RAD16-I]	+
6) AcN-RADARADAR [theoretical trypsin digestion fragment of RAD16-I]	+
7) ADARADAR [theoretical trypsin digestion fragment of RAD16-I]	+

Param readout= Peak Presence in MALDI Spectra; system= trypsin (Bos taurus); entry= ADARADARADARADA-NH2 [theoretical trypsin digestion fragment of RAD16-I] ; returns value.
−
